Test system: SK-OV-3 ovarian
EXPERIMENTAL_PROTOCOL: NCI tumour cell line growth inhibition, 384-well format
Recorded measurements of TGI, one per entry

{"COMPOUND": "O=C(c1cc(Cc2n[nH]c(=O)c3ccccc23)ccc1F)N1CCN(C(=O)C2CC2)CC1", "RESULT": "> 100 µM"}
{"COMPOUND": "COc1ccc(COc2cc3oc(=O)c4cc(C(C)O)ccc4c3cc2OC)cc1 (centres undefined)", "RESULT": "21.2 µM"}
{"COMPOUND": "S=C(NCc1ccc2c(c1)OCO2)N1CCN(c2ncnc3c2oc2ccccc23)CC1", "RESULT": "> 100 µM"}

Continue with the compound presented below.
Reported TGI (SK-OV-3 ovarian) for entry COc1ccc(S(=O)(=O)N2CCNCC2)cc1OC is > 100 µM
